All values here come from a melting point compilation (Tetko et al.; mined from patent text by program, amines drawn as free bases though some values may be those of a salt).

value_kind: melting point

Ask | Request the reported melting point associated with COc1cc2c(cc1OCCCBr)oc1cc(-c3ccccc3Cl)c3c(c12)C(=O)N(CCCBr)C3=O
Reply | 180 to 182 °C

Ask | What about NC(=O)c1cccc(-c2ccc(F)c3cc(Cc4cc(F)cc(Cl)c4)sc23)c1 ?
Reply | 168 to 169 °C

---

Measured melting point by item

molecule	measurement
CCCc1n[nH]c2ccc(C(=O)O)cc12	296 to 299 °C
N=c1cc(NCCCCc2c[nH]cn2)ccs1	209 to 211 °C
CC(C)(NC(=O)C1=C(C(=O)Nc2cc(OC3CCCC3)c(Cl)cc2F)CCCC1)c1ccc(Br)cc1	214 to 216 °C
Sc1cccc(CN2CCCCC2)c1	121 to 123 °C
COC(=O)c1ccc(/C=C(\C)c2ccc3c(c2)N(C)CCN3C)cc1	91 to 93 °C
CCCc1ccc2nc(F)c(S(N)(=O)=O)n2n1	148 °C
O=C(Nc1ccc(Oc2ccnc(NC3CCC3)n2)c2ccccc12)c1cc(F)cc(N2CCCCC2)c1	112 to 114 °C
Fc1c(F)c(F)c(OC2(c3ccccc3)CCN(Cc3ccccc3)CC2)c(F)c1F	80 to 83 °C

Ask | Request the reported melting point associated with N#Cc1cccc(-n2cnc(-c3ccccn3)n2)c1
Reply | 194 to 195 °C

Ask | What about Cc1ccc(C(=O)CCC(=O)c2ccccc2)s1 ?
Reply | 122 °C

Ask | What about CC(C)(C)C(=O)Oc1ccc2nc(S(N)(=O)=O)sc2c1 ?
Reply | 167 °C

Ask | What about COc1ccc(N2CCN(C(=O)c3cn4cc(Cl)ccc4n3)CC2)cc1 ?
Reply | 180 to 181 °C

Ask | What about COc1cc(OC)nc(C2(O)OC(=O)c3c(Cl)ccc(Cl)c32)n1 (stereo unspecified) ?
Reply | 161 to 175 °C

Ask | What about COc1ccc(C(=O)C#Cc2ccc3c(c2)c(=O)n(Cc2ccc(F)cc2)c(=O)n3C)cc1 ?
Reply | 240 °C

---

value_kind: melting point

Record excerpt, results attached:
compound	melting point
CCOc1ccc(Br)c(O)c1C(=O)NCC1CCCN1CC (stereo not drawn)	74 to 76 °C
Cc1nc(NCCc2ccccc2)sc1-c1ccnc(Nc2ccc(N3CCN(Cc4ccccc4)CC3)cc2)n1	191 to 192 °C
COCCOCCN1C(=O)C2(COc3cc4c(cc32)OCCO4)c2c(OC)ccc(OC)c21 (stereo not drawn)	109 to 110 °C
Cc1nc(N2CCN(Cc3ccc(C(F)(F)F)cc3)C2=O)sc1CO	153 to 154 °C
C=CC[C@H]1C(=O)N(S(=O)(=O)c2cc3ccccc3s2)[C@@H]2CCN(C(=O)OCc3ccccc3)[C@H]21 (relative stereo)	146 °C
COC(=O)CC1CCCC2CC(=O)N(OCC(=O)C(CC(=O)O)NC(=O)OCc3ccccc3)C12 (stereo not drawn)	55 to 58 °C
CC(C)N1CC=C(c2c[nH]c3ccccc23)CC1	178 °C

For the next question, use this compound.
Ask | Request the reported melting point associated with CN(C)[C@H]1CC[C@@H](C(=O)N2CCC(c3[nH]nc4c3C(=O)c3c(NC(=O)NN5CCOCC5)cccc3-4)CC2)CC1
Reply | 123 to 125 °C

---

Measured melting point by item

Record excerpt, results attached:
molecule	measurement
COc1ccc(Oc2ccc3c(c2)OCC(=O)N3)cc1	163 to 164 °C
N#CCCCCCCCCn1nnc(-c2ccccc2)c1-c1ccccc1	77 to 78 °C
O=C(CN1CCCC1=O)NCc1cccc(CNC(=O)CN2CCCC2=O)n1	149 °C

Ask | Request the reported melting point associated with CN(C)C=C(C(=O)C(=O)c1ccccc1C(=O)O)c1ccccc1
Reply | 153 °C

---

value_kind: melting point

compound	melting point
CCN(c1cc(C)c(C)c2cc(-c3ncc(CO)s3)[nH]c12)S(=O)(=O)c1cccs1	189 to 190 °C
CNc1nc(-c2ccc(Cl)cc2)c(CCC(=O)O)o1	217 to 218 °C
COc1ccccc1C1(Cc2ccccc2)C(=O)N(C)c2ccccc21 (stereo not given)	174 to 176 °C
CC1(CC(=O)O)OCCc2c1[nH]c1ccc(O)cc21 (stereo not given)	170 to 171 °C

Ask | Request the reported melting point associated with O=C(O)C(c1ccccc1)N1CC(N2C(=O)c3ccccc3C2=O)C1=O (stereo not given)
Reply | 176 to 183 °C

---

Measured melting point by item

molecule	melting point
CC(C)(C)c1ccc(O[C@@H]2CCC[C@H]2O)c(C(C)(C)C)c1 (relative stereo)	112 °C
NC(=O)Cc1cccc(OCCN2CCC(Cc3ccccc3)CC2)c1	100 to 101 °C
CCCN(CCC)C(=O)c1cc(C(=O)N[C@@H](Cc2cc(F)cc(F)c2)[C@H](O)CNCc2cccc(CC)c2)cc(-c2ncco2)c1	65 to 67 °C
Cc1cccc2sc(Sc3ccc4c(c3)CC[C@H]3N(C)C(=O)CC[C@]43C)nc12	134 to 142 °C

Ask | Request the reported melting point associated with Cc1cnc2c(c1)COP(=S)(N(C)C)O2 (centres undefined)
Reply | 101 to 102 °C

Ask | What about COc1ccccc1N1CCN(CCn2c(=O)c3cscc3n(CCC(=O)O)c2=O)CC1 ?
Reply | 186 to 188 °C

Ask | What about c1ccc(Nc2ccc(-c3ccc(N(c4ccccc4)c4ccc(-c5ccccc5)cc4)cc3)cc2)cc1 ?
Reply | 127 °C

Ask | What about CCOC(=O)c1cc2ccc(C)c(NS(=O)(=O)c3cccs3)c2[nH]1 ?
Reply | 184 to 185 °C

Ask | What about O=C(NCCCOCCCNC(=O)c1ccc(OC(F)(F)F)cc1)c1ccc(OC(F)(F)F)cc1 ?
Reply | 118 to 120 °C

---

value_kind: melting point

Record excerpt, results attached:
molecule	value_kind	measurement
Cc1cc(SC2=C(O)C[C@@](CCc3ccc(O)cc3)(C(C)C)OC2=O)c(C(C)C)c2sc(N)nc12	melting point	232 to 234 °C
COc1ccccc1C(Cc1ccccc1)(Cn1cncn1)C(=O)O (centres undefined)	melting point	250 to 252 °C
CCOC(=O)C(=Cc1cccn2cc(C(C)(C)C)nc12)N=[N+]=[N-]	melting point	108 to 110 °C
Clc1ccc(Cn2ccc3cc(OCc4ccncc4)ccc32)cc1	melting point	105 to 107 °C
CCC1CC(=O)N(Cc2cccc(C(=O)NC3CCCC3)c2)N=C1c1ccc(OC)c(OC2CCCC2)c1 (centres undefined)	melting point	153 °C

Ask | Request the reported melting point associated with CCOC(=O)C1(c2ccccc2)CCN(C2=CCC(C#N)(c3ccccn3)CC2)CC1 (centres undefined)
Reply | 160 °C

Ask | What about CSc1ccc(C(=O)C(=C(N)C(F)(F)F)c2ccc(F)cc2)cc1 ?
Reply | 122 to 124 °C

Ask | What about CCCCCCCCCCCCCCCCCCS(=O)(=O)Nc1cc(C(=O)Nc2ccccc2)ccc1OC ?
Reply | 154 to 156 °C

Ask | What about Cc1nc(-c2ccc(=O)n(C(C)C)n2)c(-c2ccccc2)nc1O ?
Reply | > 250 °C

---

Measured melting point by item

Record excerpt, results attached:
compound	melting point
COc1cccc(NC(=O)NCC(=O)N2[C@@H](C(=O)OC(C)(C)C)CC[C@H]2c2ccccc2)c1 (racemic)	174 °C
CN1C(=O)N(c2ccccc2)C(=O)C1=NC(Cl)C(Cl)(Cl)Cl (stereo not given)	158 to 160 °C
CC(C)c1cccc(C(C)C)c1N=C(Nc1c(C(C)C)cccc1C(C)C)ON=C1CCCCC1	150 to 152 °C
C=CC1CC1(C(=O)OC)C(=O)OCc1ccco1 (stereo not given)	67.5 to 68.5 °C

Ask | Request the reported melting point associated with COc1ccc2[nH]c(C(N)=O)cc2c1
Reply | 204 to 205 °C

Ask | What about CCCNC(=O)Nc1c(C(=O)OCC)cnn1-c1ccccc1 ?
Reply | 117 to 118 °C

Ask | What about CCc1cc(NC(=O)N2CCN(c3cc(OC)cc(OC)c3)CC2)c(N2CCNCC2)nc1C ?
Reply | 68 to 70 °C

---

Measured melting point by item

Ask | Request the reported melting point associated with Cc1ccc(S(=O)(=O)NN)cc1
Reply | 110 °C

Ask | What about Cc1[nH]c2ccc(CCN3CCN(C)CC3)cc2c1C(=O)OCc1ccccc1 ?
Reply | 167 to 168 °C

Ask | What about c1cnc2[nH]cc(CN3CCN(c4ccc5[nH]ccc5c4)CC3)c2c1 ?
Reply | 232 to 233 °C

Ask | What about Nc1nc(Cl)c2ncn([C@@H]3C[C@H](O)[C@@](O)(CO)C3)c2n1 ?
Reply | 217 to 219 °C

Ask | What about Nc1nc2ccccc2c2c1nc(-c1ccccc1)n2CCCCNC(=O)c1ccc2ccccc2n1 ?
Reply | 81.1 to 83.9 °C

Ask | What about COC(=O)COc1cccnc1Br ?
Reply | 63 to 64 °C
